- assay-method-text: chemical genetic growth profiling, strain panel (AID 1159580);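 further: tested at 20 µM; growth read once vehicle control cultures reached saturation at 30 °C; lower values mean less growth of the strain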
- experimental-context: S. cerevisiae deletion strains, growth OD, locus YER167W, strain BCK2
Among all 5,500 compounds or so, about 2,000 (36%) were called active. About 18% were inconclusive and are not listed. No stated cut-off is given here; in the data, active means normalized growth mostly below about 0.91 (no sharp cut-off); inconclusive means no clear call, values can overlap the other calls; inactive means mostly above about 0.92. This is one part of the list.
Would you mind answering with one of these outcomes? active, inactive

These recorded examples may help you get a feel for the data.
>  <compound>
CCN(CC)C(C)CN1c2ccccc2Sc2ccccc21 (stereo not drawn)

>  <class>
inactive

$$$$
>  <compound>
CNCCCN1c2ccccc2CCc2ccccc21

>  <class>
inactive

$$$$
>  <compound>
O=c1cc(-c2ccccc2)oc2cc(O)c(O)c(O)c12

>  <class>
active

$$$$
>  <compound>
CN(C(=O)CN(CCO)CC(=O)N(C)C(C)(C)Cc1ccccc1)C(C)(C)Cc1ccccc1

>  <class>
inactive

$$$$
>  <compound>
CCCC(C(=O)OCCN(CC)CC)(c1ccccc1)c1ccccc1

>  <class>
inactive

$$$$

Lookup: Short answer needed: outcome of this test for CC(CN1c2ccccc2Sc2ccccc21)N(C)C (stereo not drawn) ?
Found: inactive

Lookup: Name the outcome recorded for CC1CC2C3CC(F)C4=CC(=O)C=CC4(C)C3(F)C(O)CC2(C)C1C(=O)COC(=O)C(C)(C)C (stereo not drawn) in the assay.
Found: inactive

Lookup: Record lookup: outcome of this test for CCC(=O)c1ccc2c(c1)N(CC(C)N(C)C)c1ccccc1S2 (stereo not drawn) ?
Found: inactive

Lookup: What did the test return for C=C1C2=CC(=O)O[C@@H](c3ccoc3)[C@]2(C)CCC1[C@@]1(C)C=CC(=O)C(C)(C)[C@@H]1CC(=O)OC (stereo partly drawn) ?
Found: inactive

Lookup: Test call for this compound, please: COc1cc([C@H]2Oc3cc([C@H]4Oc5cc(O)cc(O)c5C(=O)[C@@H]4O)ccc3O[C@@H]2CO)ccc1O
Found: inactive
